Biological target: Torsin-1A (Homo sapiens) (UniProt O14656)
Sequence (O14656 whole entry, looked up): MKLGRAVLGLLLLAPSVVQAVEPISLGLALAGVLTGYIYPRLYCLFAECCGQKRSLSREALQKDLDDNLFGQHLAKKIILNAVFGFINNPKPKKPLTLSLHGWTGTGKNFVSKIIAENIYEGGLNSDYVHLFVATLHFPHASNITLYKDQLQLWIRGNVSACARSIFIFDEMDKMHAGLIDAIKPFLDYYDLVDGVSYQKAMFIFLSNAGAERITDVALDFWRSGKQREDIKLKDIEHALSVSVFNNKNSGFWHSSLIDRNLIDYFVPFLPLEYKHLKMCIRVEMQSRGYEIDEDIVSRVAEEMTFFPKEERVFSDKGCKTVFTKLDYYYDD
Assay: small-molecule binders of mutant TOR1A in lysate, primary screen, cell lysate, small-molecule microarray, COS7 lysate, 635/667 nm fluorescence (AID 1150);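 also: score pools 667 nm emission and signal to noise measuring lysate protein binding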
Conditions: COS7 hTOR1A mutant lysate, 635 nm fluorescence, higher = more signal

compound	tgt	composite z-score
COc1cc2c(cc1OC)CN(C(=O)[C@H]1[C@@H]3C(=O)O[C@@H](c4ccccc4)[C@@H](c4ccccc4)N3[C@@H](c3ccc(O)cc3)[C@]13C(=O)Nc1ccc(C#CC4(O)CCCCCC4)cc13)CC2	Torsin-1A (Homo sapiens) (UniProt O14656)	1.36
CO[C@H]1COC(=O)[C@@H](C)NC(=O)CC=C[C@@H](C)[C@H](OC)COC(=O)CC=C[C@@H]1C	Torsin-1A (Homo sapiens) (UniProt O14656)	1.69
Cc1ccc(N2C(=O)c3ccccc3[C@](C)(C(=O)NCC(C)C)[C@@H]2c2ccc(CO)cc2)nc1	Torsin-1A (Homo sapiens) (UniProt O14656)	-1.26
C=C(COC)/C(=C/C[C@@H](OC(C)=O)c1cccc(OCCO)c1)c1cc(C(=O)OC)ccc1OC	Torsin-1A (Homo sapiens) (UniProt O14656)	-0.0193
COC(=O)Cn1c(C(=O)N2CCCC2)cc2c1C[C@H]1CN(C(=O)c3ccccc3)[C@@](Cc3ccc(OC)cc3)(C(=O)OC)[C@@H]21	Torsin-1A (Homo sapiens) (UniProt O14656)	0.306
CN1C(=O)C2C=CC(C(O)c3ccc(N(C)C)cc3)N(Nc3ccc([N+](=O)[O-])cc3[N+](=O)[O-])C2C1=O (stereo not drawn)	Torsin-1A (Homo sapiens) (UniProt O14656)	1.56
C=C(COC)C(=O)CC[C@H](OC(=O)c1ccccc1-c1ccccc1C(=O)O)c1cccc(OCCO)c1	Torsin-1A (Homo sapiens) (UniProt O14656)	2.6
COc1cccc([C@@H]2[C@@H](C)CC[C@H]3C(=O)N4[C@H](c5cccc(OC)c5)[C@@H](C)CC[C@H]4C(=O)N23)c1	Torsin-1A (Homo sapiens) (UniProt O14656)	0.824
CO[C@H]1O[C@H](CO)[C@@H](OC(=O)Nc2ccc(Oc3ccccc3)cc2)[C@H](OC(=O)Nc2ccccc2-c2ccccc2)[C@H]1OC(=O)Nc1ccccc1-c1ccccc1	Torsin-1A (Homo sapiens) (UniProt O14656)	0.517
O=C1O[C@H](c2ccccc2)[C@H](c2ccccc2)N2[C@H]1[C@@H](C(=O)NC[C@H](O)c1ccccc1)[C@]1(C(=O)Nc3ccc(C#CC4=CCCCC4)cc31)[C@H]2c1ccc(OCCO)cc1	Torsin-1A (Homo sapiens) (UniProt O14656)	0.705
CO[C@@H]1COC(=O)[C@H](C)NC(=O)CC=C[C@@H](C)[C@H](NS(=O)(=O)c2ccc(C)cc2)COC(=O)CC=C[C@@H]1C	Torsin-1A (Homo sapiens) (UniProt O14656)	0.252
O=C1C[C@@](C(=O)NCCN2CCOCC2)(c2ccc([N+](=O)[O-])cc2)[C@@H](c2ccc(CO)cc2)N1C1CCCCC1	Torsin-1A (Homo sapiens) (UniProt O14656)	0.555
COc1ccc(CCN2C(=O)[C@@]3(c4ccc([N+](=O)[O-])cc4)CC(=O)N(CC45CC6CC(CC(C6)C4)C5)[C@@H]3c3ccc(CO)cc32)cc1	Torsin-1A (Homo sapiens) (UniProt O14656)	0.335
